# assay-info: Plasma concentration in pig at 10 mg/kg, po measured upto 240 mins by LC-MS/MS analysis
# Assay type: ADME, organism-based, Sus scrofa

[
  {
    "record-smiles": "C=C[C@]1(C)C[C@@H](OC(=O)Cn2cc(-c3ccc(Cn4cnc5c(N6CCNCC6)ncnc54)nc3)nn2)[C@]2(C)[C@H](C)CC[C@]3(CCC(=O)[C@H]32)[C@@H](C)[C@@H]1O",
    "concentration at 4 h, ng/mL": 49.7
  }
]

###

# assay-info: Clearance in pig plasma at 10 mg/kg, po measured upto 240 mins by LC-MS/MS analysis
# Format: ADME, organism-based, Sus scrofa

[
  {
    "record-smiles": "C=C[C@]1(C)C[C@@H](OC(=O)Cn2cc(-c3ccc(Cn4cnc5c(N6CCNCC6)ncnc54)nc3)nn2)[C@]2(C)[C@H](C)CC[C@]3(CCC(=O)[C@H]32)[C@@H](C)[C@@H]1O",
    "uom": "mL/min/kg",
    "CL/F": 1420
  }
]

###

# assay-info: Elimination rate constant in pig plasma at 10 mg/kg, po measured upto 240 mins by LC-MS/MS analysis
# Assay type: ADME, organism-based, Sus scrofa

[
  {
    "record-smiles": "C=C[C@]1(C)C[C@@H](OC(=O)Cn2cc(-c3ccc(Cn4cnc5c(N6CCNCC6)ncnc54)nc3)nn2)[C@]2(C)[C@H](C)CC[C@]3(CCC(=O)[C@H]32)[C@@H](C)[C@@H]1O",
    "k el at 4 h / s⁻¹": 0.000518
  }
]

###

Papp B→A at 2 h, 280 µM listing for selected molecules.
# assay-info: Apparent permeability from basolateral to apical side in human Caco-2 cells at 280 uM measured upto 120 mins by LC-MS analysis
# Format: ADME, cell-based

[
  {
    "record-smiles": "C=C[C@]1(C)C[C@@H](OC(=O)CS[C@@H]2CC[C@@H](N)C[C@H]2O)[C@]2(C)[C@H](C)CC[C@]3(CCC(=O)[C@H]32)[C@@H](C)[C@@H]1O",
    "Papp B→A at 2 h, 280 µM [nm/s]": 125
  },
  {
    "record-smiles": "C=C[C@]1(C)C[C@@H](OC(=O)Cn2cc(-c3ccc(Cn4cnc5c(N6CCNCC6)ncnc54)nc3)nn2)[C@]2(C)[C@H](C)CC[C@]3(CCC(=O)[C@H]32)[C@@H](C)[C@@H]1O",
    "Papp B→A at 2 h, 280 µM [nm/s]": 53.4
  }
]

###

# assay-info: Half life in pig plasma at 10 mg/kg, po measured upto 240 mins by LC-MS/MS analysis
# Type: ADME, organism-based, Sus scrofa

[
  {
    "record-smiles": "C=C[C@]1(C)C[C@@H](OC(=O)Cn2cc(-c3ccc(Cn4cnc5c(N6CCNCC6)ncnc54)nc3)nn2)[C@]2(C)[C@H](C)CC[C@]3(CCC(=O)[C@H]32)[C@@H](C)[C@@H]1O",
    "half-life [min]": 22.2
  }
]

###

MIC listing for selected compounds.
# Tested on: Enterococcus faecium
# assay-info: Antibacterial activity against Vancomycin-resistant Enterococcus faecium assessed as inhibition of visible growth incubated for 20 to 24 hrs by microbroth serial dilution assay
# Assay type: functional
# condition-parameters: time 20-24 hrs, read-out: MIC100

[
  {
    "compound": "C=C[C@]1(C)C[C@@H](OC(=O)Cn2cc(-c3ccc([C@@H](C)n4cnc5c(N)ncnc54)cc3)nn2)[C@]2(C)[C@H](C)CC[C@]3(CCC(=O)[C@H]32)[C@@H](C)[C@@H]1O",
    "tgt": "Enterococcus faecium",
    "MIC [µg/mL]": 0.25
  },
  {
    "compound": "C=C[C@]1(C)C[C@@H](OC(=O)Cn2cc(-c3ccc(Cn4cnc5c(N)ncnc54)cc3)nn2)[C@]2(C)[C@H](C)CC[C@]3(CCC(=O)[C@H]32)[C@@H](C)[C@@H]1O",
    "tgt": "Enterococcus faecium",
    "MIC [µg/mL]": 0.12
  },
  {
    "compound": "C=C[C@]1(C)C[C@@H](OC(=O)Cn2cc(-c3ccc(Cn4cnc5c(N)ncnc54)c(O)c3)nn2)[C@]2(C)[C@H](C)CC[C@]3(CCC(=O)[C@H]32)[C@@H](C)[C@@H]1O",
    "tgt": "Enterococcus faecium",
    "MIC [µg/mL]": 0.25
  },
  {
    "compound": "C=C[C@]1(C)C[C@@H](OC(=O)Cn2cc(-c3ccc(Cn4cnc5c(N)ncnc54)c(OC)c3)nn2)[C@]2(C)[C@H](C)CC[C@]3(CCC(=O)[C@H]32)[C@@H](C)[C@@H]1O",
    "tgt": "Enterococcus faecium",
    "MIC [µg/mL]": 0.12
  },
  {
    "compound": "C=C[C@]1(C)C[C@@H](OC(=O)Cn2cc(-c3ccc(Cn4cnc5c(N6CCNCC6)ncnc54)nc3)nn2)[C@]2(C)[C@H](C)CC[C@]3(CCC(=O)[C@H]32)[C@@H](C)[C@@H]1O",
    "tgt": "Enterococcus faecium",
    "MIC [µg/mL]": 0.03
  },
  {
    "compound": "C=C[C@]1(C)C[C@@H](OC(=O)CS[C@@H]2CC[C@@H](N)C[C@H]2O)[C@]2(C)[C@H](C)CC[C@]3(CCC(=O)[C@H]32)[C@@H](C)[C@@H]1O [LEFAMULIN]",
    "tgt": "Enterococcus faecium",
    "MIC [µg/mL]": 0.12
  },
  {
    "compound": "C=C[C@]1(C)C[C@@H](OC(=O)Cn2cc(-c3ccc(Cn4cnc5c(N)nc(N)nc54)cc3)nn2)[C@]2(C)[C@H](C)CC[C@]3(CCC(=O)[C@H]32)[C@@H](C)[C@@H]1O",
    "tgt": "Enterococcus faecium",
    "MIC [µg/mL]": 0.12
  }
]
